Biological target: Human HER3, endogenous, on human cancer cell lines (SK-Br-3, MCF7, BT-474) (human, UniProt P21860 20-1342)
Sequence (P21860 20-1342): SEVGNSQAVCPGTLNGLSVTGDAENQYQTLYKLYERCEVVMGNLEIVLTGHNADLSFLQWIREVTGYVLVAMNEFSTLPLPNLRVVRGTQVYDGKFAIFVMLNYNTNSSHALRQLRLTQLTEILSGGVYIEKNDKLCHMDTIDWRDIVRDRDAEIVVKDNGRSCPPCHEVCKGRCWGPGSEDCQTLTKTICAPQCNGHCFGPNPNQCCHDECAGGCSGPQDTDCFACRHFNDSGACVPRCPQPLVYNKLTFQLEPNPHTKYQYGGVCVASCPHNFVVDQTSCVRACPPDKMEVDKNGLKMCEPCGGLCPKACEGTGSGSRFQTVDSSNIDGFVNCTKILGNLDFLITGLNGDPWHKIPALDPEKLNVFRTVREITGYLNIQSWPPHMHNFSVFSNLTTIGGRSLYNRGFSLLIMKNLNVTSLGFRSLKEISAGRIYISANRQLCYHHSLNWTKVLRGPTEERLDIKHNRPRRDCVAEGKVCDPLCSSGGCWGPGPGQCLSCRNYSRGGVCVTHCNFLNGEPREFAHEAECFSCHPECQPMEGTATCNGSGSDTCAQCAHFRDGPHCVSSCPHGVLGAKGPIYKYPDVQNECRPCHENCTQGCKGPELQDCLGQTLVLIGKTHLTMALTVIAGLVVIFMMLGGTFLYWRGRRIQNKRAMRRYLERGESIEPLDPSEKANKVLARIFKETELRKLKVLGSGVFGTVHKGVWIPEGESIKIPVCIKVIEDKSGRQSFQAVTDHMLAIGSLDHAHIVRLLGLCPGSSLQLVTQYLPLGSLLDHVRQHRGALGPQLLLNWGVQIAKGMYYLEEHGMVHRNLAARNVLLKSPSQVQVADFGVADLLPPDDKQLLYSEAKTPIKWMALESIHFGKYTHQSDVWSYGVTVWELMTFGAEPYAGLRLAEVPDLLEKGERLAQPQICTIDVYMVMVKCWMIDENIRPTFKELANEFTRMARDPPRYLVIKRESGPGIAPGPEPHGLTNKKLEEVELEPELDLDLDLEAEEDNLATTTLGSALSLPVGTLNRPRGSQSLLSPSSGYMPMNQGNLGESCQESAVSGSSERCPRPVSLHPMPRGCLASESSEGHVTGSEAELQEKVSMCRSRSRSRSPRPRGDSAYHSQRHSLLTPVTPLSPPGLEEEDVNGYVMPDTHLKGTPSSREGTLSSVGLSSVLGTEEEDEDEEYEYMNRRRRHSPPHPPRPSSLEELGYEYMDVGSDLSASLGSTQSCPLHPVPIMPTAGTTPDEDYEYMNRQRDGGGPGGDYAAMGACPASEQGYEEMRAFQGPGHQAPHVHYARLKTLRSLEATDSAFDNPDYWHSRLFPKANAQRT
Experiment: cell-based or functional assay
Endpoint Name: BT-474 proliferation IC50 (nM)
Output spec: scalar in nM, unitless text.

Binder: MOR13755 (antibody, human IgG1, kappa, V domains shown, tested as IgG) VH: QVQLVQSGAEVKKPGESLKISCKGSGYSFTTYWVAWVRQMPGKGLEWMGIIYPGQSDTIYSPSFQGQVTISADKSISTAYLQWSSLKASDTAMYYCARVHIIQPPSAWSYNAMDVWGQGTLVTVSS VL: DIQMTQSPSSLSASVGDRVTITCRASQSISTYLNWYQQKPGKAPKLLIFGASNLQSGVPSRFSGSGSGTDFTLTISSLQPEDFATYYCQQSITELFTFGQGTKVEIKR
BT-474 proliferation IC50 (nM): 0.738

Please look at the following binder next.
Entry under test: MOR13758 (antibody, human IgG1, kappa, V domains shown, tested as IgG) VH: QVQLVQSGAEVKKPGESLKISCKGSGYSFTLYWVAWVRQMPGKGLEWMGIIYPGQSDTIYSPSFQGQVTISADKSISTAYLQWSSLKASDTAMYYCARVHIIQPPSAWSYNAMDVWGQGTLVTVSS VL: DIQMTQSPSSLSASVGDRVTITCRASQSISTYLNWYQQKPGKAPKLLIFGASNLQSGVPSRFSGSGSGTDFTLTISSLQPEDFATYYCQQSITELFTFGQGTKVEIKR . Its BT-474 proliferation IC50 was 0.516
